FYI, the data here is from patent US4547371A.

Target: Human Polymorphonuclear Leukocyte Elastase (Homo sapiens)
Construct: Crude extract of human polymorphonuclear leukocytes (PMN) containing elastase activity; endogenous in cells; host or cells: human polymorphonuclear leukocytes (crude extract)
Sequence (P08246 30-247 limits assumed): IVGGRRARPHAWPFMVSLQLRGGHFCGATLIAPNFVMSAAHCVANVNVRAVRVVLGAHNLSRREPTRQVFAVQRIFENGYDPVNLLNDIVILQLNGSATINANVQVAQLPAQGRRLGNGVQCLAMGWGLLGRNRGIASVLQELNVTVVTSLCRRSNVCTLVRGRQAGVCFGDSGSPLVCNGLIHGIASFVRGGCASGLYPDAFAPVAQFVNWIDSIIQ
Experiment: Inhibition of human polymorphonuclear leukocyte elastase via hydrolysis of N-t-Boc-alanyl-alanyl-prolyl-alanine-p-nitroanilide
Type: biochemical
Details: effective dosage for 50% inhibition of the enzyme activity 2 minutes after zero time; crude human PMN extract, Boc-AAPAN substrate, pH 7.5, 410 mμ; read-out: ED50 (the source's name) (converted)
readout.label: IC50 (nM)

{"compound": "CC(=O)OCC1=C(C(=O)OCc2ccccc2)N2C(=O)[C@H](NC(=O)C(F)(F)F)[C@H]2S(=O)(=O)C1", "IC50 / nM": 81.6}

P = O=C(OCc1ccccc1)C1=C(C(F)(F)F)CS(=O)(=O)[C@@H]2[C@@H](NC(=O)C(F)(F)F)C(=O)N12 (relative stereo)
Q = CC(C)(C)OC(=O)C1=C(C(F)(F)F)CS(=O)(=O)[C@@H]2[C@@H](NC(=O)C(F)(F)F)C(=O)N12 (relative stereo)
R = COC(=O)N[C@H]1C(=O)N2C(C(=O)OCc3ccccc3)=C(COC(C)=O)CS(=O)(=O)[C@H]12
Hello, I need these entries ordered by IC50, highest reading first. Thanks! Present the labels in the sequence the task asks for. Q, R, P
(Q: 1770 nM, R: 663 nM, P: 61.7 nM)
